Target desc: UniProt P01375
Experiment: TNF-neutralization bioassay: TNF-induced cell death of LM cells (MTT)
Assay type: cell-based
Condition parameters: compound 50 μM, TNF 20 ng/ml, actinomycin D, LM cells, 24 hours
Endpoint: inhibition at 50 µM (%)
Hi! Could you send only the number? It should be in %, unit omitted.

Check out these entries, answers already filled in.
> print(dat)
                                   molecule             endpoint  meas.value
1  Cc1ccc2c(=O)c(C(=O)O)c(-c3cc(F)ccc3F)oc2c1 [Example 59]  inhibition at 50 µM        32.3
2  O=C(O)c1c(-c2cccc(F)c2F)oc2cc(Cl)ccc2c1=O [Example 55]  inhibition at 50 µM         100
3  Cc1ccc2oc(-c3cc(F)ccc3F)c(C(=O)O)c(=O)c2c1 [Example 60]  inhibition at 50 µM        28.1

The recorded inhibition at 50 µM for entry COc1ccc(-c2oc3c(C)cccc3c(=O)c2C(=O)O)cc1OC [Example 37] equals 33.4

Lab book: inhibition at 50 µM of Cc1cccc2c(=O)c(C(=O)O)c(-c3cccc(F)c3F)oc12 [Example 52] noted as 18.5

----------
Target desc: TNF (Homo sapiens)
Sequence (P01375 77-233 limits assumed): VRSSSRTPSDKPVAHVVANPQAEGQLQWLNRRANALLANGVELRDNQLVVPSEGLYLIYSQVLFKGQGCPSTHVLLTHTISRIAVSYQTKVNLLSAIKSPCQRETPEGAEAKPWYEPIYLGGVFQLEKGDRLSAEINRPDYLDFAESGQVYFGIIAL
Experiment: TNF-neutralization bioassay: TNF-induced cell death of LM cells (MTT)
Condition parameters: inhibition of TNF-induced LM cell death
pIC50: −log10 of the molar value.
Outcome: Satisfied for pIC50 of at least 5; Not satisfied for anything lower.

Examples from the recorded data:
> print(dat)
                                   molecule  assigned.label
1  O=C(O)c1c(-c2ccco2)oc2ccc(Cl)cc2c1=O [Example 23]       Satisfied
2  O=C(O)c1c(-c2ccc(F)c(F)c2)oc2ccc(Cl)cc2c1=O [Example 67]       Satisfied
3  O=C(O)c1c(-c2cc(F)ccc2F)oc2cc(Cl)ccc2c1=O [Example 61]       Satisfied

[Q] Determine whether measured pIC50 meets or exceeds 5 for O=C(O)c1c(-c2cccc(F)c2)oc2cc(Cl)ccc2c1=O [Example 44]
[A] Not satisfied

[Q] Threshold query (pIC50 >= 5) on O=C(O)c1c(-c2cc(F)cc(F)c2)oc2ccc(Br)cc2c1=O [Example 51]
[A] Satisfied

----------
# melting point annotations

Examples with their reported melting point follow.
> print(dat)
                         structure.notation     meas.value
1  Cc1cccc(-c2oc3ccc(Br)cc3c(=O)c2C(=O)O)c1  208 to 210 °C
2  Cc1ccc2oc(-c3ccc(F)c(F)c3)c(C(=O)O)c(=O)c2c1  222 to 223 °C
3  Cc1cccc2c(=O)c(C(=O)O)c(-c3ccc(Cl)cc3)oc12  217 to 219 °C

# evaluate next
Kindly note the recorded melting point for O=C(O)c1c(-c2ccc(Cl)cc2)oc2ccc(Cl)cc2c1=O , which is 227 to 228 °C

----------
Target desc: TNF (Homo sapiens)
Experiment: TNF-neutralization bioassay: TNF-induced cell death of LM cells (MTT)
Format: cell-based
Condition parameters: compound 50 μM, TNF 20 ng/ml, actinomycin D, LM cells, 24 hours
This section presents compounds with their documented inhibition at 50 µM values.

Below are worked cases with known answers.
> print(dat)
                          structure.notation         target.desc             endpoint  meas.value
 1  O=C(O)c1c(-c2cc(F)ccc2F)oc2cc(Cl)ccc2c1=O  TNF (Homo sapiens)  inhibition at 50 µM       95.7%
 2  Cc1cccc2c(=O)c(C(=O)O)c(-c3ccc(Cl)cc3)oc12  TNF (Homo sapiens)  inhibition at 50 µM       15.8%
 3  Cc1cccc(-c2oc3ccc(Cl)cc3c(=O)c2C(=O)O)c1  TNF (Homo sapiens)  inhibition at 50 µM       45.7%
 4  O=C(O)c1c(-c2cccc(F)c2F)oc2ccc(Br)cc2c1=O  TNF (Homo sapiens)  inhibition at 50 µM        100%
 5  Cc1ccc2c(=O)c(C(=O)O)c(-c3ccc(Cl)cc3)oc2c1  TNF (Homo sapiens)  inhibition at 50 µM       14.6%
 6      O=C(O)c1c(-c2ccco2)oc2ccc(Br)cc2c1=O  TNF (Homo sapiens)  inhibition at 50 µM       76.3%
 7  COc1ccc(-c2oc3ccc(Br)cc3c(=O)c2C(=O)O)cc1OC  TNF (Homo sapiens)  inhibition at 50 µM        100%
 8  COc1ccc2c(=O)c(C(=O)O)c(-c3ccccc3Cl)oc2c1  TNF (Homo sapiens)  inhibition at 50 µM       45.6%
 9  COc1ccc2oc(-c3cccc(C)c3)c(C(=O)O)c(=O)c2c1  TNF (Homo sapiens)  inhibition at 50 µM         47%
10  Cc1cccc2c(=O)c(C(=O)O)c(-c3cc(F)ccc3F)oc12  TNF (Homo sapiens)  inhibition at 50 µM       33.8%

The compound COc1ccc2oc(-c3ccco3)c(C(=O)O)c(=O)c2c1 on TNF (Homo sapiens): inhibition at 50 µM was 24.6%

Hey, TNF (Homo sapiens) data for O=C(O)c1c(-c2ccco2)oc2ccc(Cl)cc2c1=O : inhibition at 50 µM came out at 70.1%

Bench note, TNF (Homo sapiens): entry Cc1cccc2c(=O)c(C(=O)O)c(-c3cccs3)oc12 , its inhibition at 50 µM = 24.8%

So the reported inhibition at 50 µM for Cc1ccc2oc(-c3cc(F)cc(F)c3)c(C(=O)O)c(=O)c2c1 , on TNF (Homo sapiens), turned out to be 37.7%
